Assay: Lipophilicity, log D of compound
Type: physicochemical
Conditions: octanol/water
I'd appreciate it if you marked entries class 1 when logD is lower than 2 and class 0 when it is not.

As a guide, the following entries are already answered.
Cc1noc(C)c1-c1ccc2c(-c3nc(N[C@H]4CCCNC4)ncc3C(F)(F)F)c[nH]c2n1.Cl	class 0
Clc1cnc(N[C@H]2CCCNC2)nc1-c1c[nH]c2ccccc12	class 1
CS(=O)(=O)c1ccc2c(-c3nc(N[C@H]4CCCNC4)ncc3C(F)(F)F)c[nH]c2c1	class 1
CC1(C)CNC[C@@H](Nc2ncc(C(F)(F)F)c(-c3c[nH]c4ccccc34)n2)C1	class 0
CC1(C)CNC[C@@H](Nc2ncc(C(F)(F)F)c(-c3c[nH]c4c(P(C)(C)=O)c(C#N)ccc34)n2)C1	class 0

State whether 2 exceeds logD recorded for CP(C)(=O)c1cccc2c(-c3nc(N[C@H]4CCCNC4)ncc3C(F)(F)F)c[nH]c12 . class 1

State whether 2 exceeds logD recorded for CCc1cnc(N[C@H]2CCCNC2)nc1-c1c[nH]c2ccccc12 . class 1

State whether 2 exceeds logD recorded for CCc1cnc(N[C@H]2CCCNC2)nc1-c1c[nH]c2c(S(C)(=O)=O)c(C#N)ccc12 . class 1

State whether 2 exceeds logD recorded for CS(=O)(=O)c1c(C#N)ccc2c(-c3nc(N[C@H]4CCCNC4)ncc3C(F)(F)F)c[nH]c12 . class 1

---

Measured Kd, listed per entry.
Target: Cyclin-dependent kinase 7/ cyclin H (Homo sapiens, UniProt P50613)
Sequence (P51946 whole entry, the tested form may be a part): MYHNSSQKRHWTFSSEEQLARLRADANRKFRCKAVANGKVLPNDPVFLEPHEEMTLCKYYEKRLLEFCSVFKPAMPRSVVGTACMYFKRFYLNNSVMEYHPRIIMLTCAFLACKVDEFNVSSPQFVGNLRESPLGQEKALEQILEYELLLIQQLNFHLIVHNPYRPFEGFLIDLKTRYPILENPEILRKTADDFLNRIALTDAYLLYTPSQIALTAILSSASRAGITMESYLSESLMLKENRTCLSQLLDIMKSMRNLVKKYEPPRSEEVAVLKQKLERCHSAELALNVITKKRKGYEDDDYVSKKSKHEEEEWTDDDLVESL
Sequence (P50613 whole entry, the tested form may be a part): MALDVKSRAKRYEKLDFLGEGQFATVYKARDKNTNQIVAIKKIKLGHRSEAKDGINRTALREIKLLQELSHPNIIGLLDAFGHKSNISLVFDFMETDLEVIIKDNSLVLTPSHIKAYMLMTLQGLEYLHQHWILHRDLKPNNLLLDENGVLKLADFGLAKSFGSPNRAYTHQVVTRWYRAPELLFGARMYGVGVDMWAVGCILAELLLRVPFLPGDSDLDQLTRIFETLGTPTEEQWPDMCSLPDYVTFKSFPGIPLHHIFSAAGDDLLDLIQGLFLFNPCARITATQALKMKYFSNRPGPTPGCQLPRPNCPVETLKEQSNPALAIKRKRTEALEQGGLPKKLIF
Test: Binding affinity to full length CDK7 (1 to 346 residues) /N-terminal TEV cleavable 6His tagged full length cyclinH (1 to 323 residues) (unknown origin) expressed in baculovirus infected Sf9 cells by Surface plasmon resonance assay
Dear colleague, please return just the value in nM, with no unit written.

Examples with answers:
CCc1cnc(N[C@H]2CCCNC2)nc1-c1c[nH]c2ccccc12	0.4
CC1(C)CC[C@H](Nc2ncc(C(F)(F)F)c(-c3c[nH]c4ccccc34)n2)CN1	0.34

Bench note, Cyclin-dependent kinase 7/ cyclin H (Homo sapiens, UniProt P50613): entry CC1(C)CNC[C@@H](Nc2ncc(C(F)(F)F)c(-c3c[nH]c4c(P(C)(C)=O)c(C#N)ccc34)n2)C1 , its Kd = 0.06

Bench note, Cyclin-dependent kinase 7/ cyclin H (Homo sapiens, UniProt P50613): entry CS(=O)(=O)c1ccc2c(-c3nc(N[C@H]4CCCNC4)ncc3C(F)(F)F)c[nH]c2c1 , its Kd = 0.1

Bench note, Cyclin-dependent kinase 7/ cyclin H (Homo sapiens, UniProt P50613): entry FC(F)(F)c1cnc(N[C@H]2CCCNC2)nc1-c1c[nH]c2ccccc12 , its Kd = 0.15

---

Assay: Half life in BALB/c mouse at 2 mg/kg, po
Assay type: ADME, organism-based
Conditions: in vivo
measured_quantity: half-life (h)
Dear colleague, please return just the value in h, with no unit written.

Measured half-life, CC1(C)CC[C@H](Nc2ncc(C(F)(F)F)c(-c3c[nH]c4c(P(C)(C)=O)c(C#N)ccc34)n2)CN1 : 3.33

---

Assay: Oral bioavailability in CD-1 mouse 5 mg/kg measured upto 24 hrs by LC-MS/MS analysis
Assay type: ADME, organism-based
Conditions: in vivo
Measured bioavailability, listed per entry.
Dear colleague, please return just the value in %, with no unit written.

Examples with answers:
CS(=O)(=O)c1cccc2c(-c3nc(N[C@H]4CCCNC4)ncc3C(F)(F)F)c[nH]c12	49
CC1(C)CC[C@H](Nc2ncc(C(F)(F)F)c(-c3c[nH]c4c(P(C)(C)=O)c(C#N)ccc34)n2)CN1	47
CCc1cnc(N[C@H]2CCCNC2)nc1-c1c[nH]c2ccccc12	2
CS(=O)(=O)c1c(C#N)ccc2c(-c3nc(N[C@H]4CCCNC4)ncc3C(F)(F)F)c[nH]c12	5
CP(C)(=O)c1cccc2c(-c3nc(N[C@H]4CCCNC4)ncc3C(F)(F)F)c[nH]c12	3
Clc1cnc(N[C@H]2CCCNC2)nc1-c1c[nH]c2ccccc12	39
N#Cc1ccc2c(-c3nc(N[C@H]4CCCNC4)ncc3C(F)(F)F)c[nH]c2c1	43
CC1(C)CNC[C@@H](Nc2ncc(C(F)(F)F)c(-c3c[nH]c4ccccc34)n2)C1	40
CC1(C)CNC[C@@H](Nc2ncc(C(F)(F)F)c(-c3c[nH]c4c(P(C)(C)=O)c(C#N)ccc34)n2)C1	28
Cc1noc(C)c1-c1ccc2c(-c3nc(N[C@H]4CCCNC4)ncc3C(F)(F)F)c[nH]c2n1.Cl	36

Measured bioavailability, Cc1noc(C)c1-c1ccc2c(-c3nc(N[C@H]4CCCNC4)ncc3C(F)(F)F)c[nH]c2c1 : 16

Measured bioavailability, FC(F)(F)c1cnc(N[C@H]2CCCNC2)nc1-c1c[nH]c2ccccc12 : 100
